The measured values listed here are drawn from ChEMBL document CHEMBL1157565.

# testedSystem: 5-hydroxytryptamine receptor 2A (Homo sapiens)
# protocolNotes: Activity at human 5HT2A receptor expressed in HEK293 cells assessed as [3H]inositol phosphate production by scintillation counting
# Type: functional, cell-based
propertyName: IC50 (nM)
Respond with the bare value in nM.

(Q) Give me measured IC50, please, for this compound: COc1ccc(NC(=O)Nc2ccc(Cl)cc2)cc1-c1c(Br)cnn1C
(A) 0.7

(Q) Give me measured IC50, please, for this compound: Cn1ncc(Br)c1-c1cccc(NC(=O)Nc2ccc(OC(F)(F)F)cc2)c1
(A) 120

(Q) Give me measured IC50, please, for this compound: Cn1ncc(Br)c1-c1cccc(NC(=O)Nc2ccc(Cl)cc2)c1
(A) 19

###

For each entry below, report its Ki value.
# testedSystem: 5-hydroxytryptamine receptor 2A (Homo sapiens, UniProt P28223)
# Sequence (P28223 whole entry): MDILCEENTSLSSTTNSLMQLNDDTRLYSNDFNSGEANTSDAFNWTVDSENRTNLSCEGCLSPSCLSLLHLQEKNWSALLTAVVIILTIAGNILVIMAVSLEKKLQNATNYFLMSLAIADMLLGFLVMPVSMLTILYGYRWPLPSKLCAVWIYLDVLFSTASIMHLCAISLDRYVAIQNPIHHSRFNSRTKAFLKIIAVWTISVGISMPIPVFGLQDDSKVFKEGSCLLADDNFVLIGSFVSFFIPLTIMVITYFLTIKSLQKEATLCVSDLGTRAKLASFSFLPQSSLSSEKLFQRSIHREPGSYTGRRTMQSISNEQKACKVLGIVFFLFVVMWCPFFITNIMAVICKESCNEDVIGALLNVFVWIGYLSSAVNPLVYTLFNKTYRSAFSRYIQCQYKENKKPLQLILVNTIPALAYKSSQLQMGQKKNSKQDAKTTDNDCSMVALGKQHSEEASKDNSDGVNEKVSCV
# protocolNotes: Displacement of [3H]DOI from human recombinant 5HT2A receptor expressed in HEK293 cells by scintillation counting
# Type: cell-based
# protocolConditions: in the assay text read “[125I]DOI” for “[3H]DOI”
Field note: include the unit after the figure.

(Q) Give me measured Ki, please, for this molecule: COc1ccc(NC(=O)Nc2ccc(Cl)cc2C(F)(F)F)cc1-c1c(Br)cnn1C
(A) 0.501 nM

(Q) Give me measured Ki, please, for this molecule: COc1ccc(NC(=O)Nc2ccc(F)c(F)c2)cc1-c1c(Cl)cnn1C
(A) 0.251 nM

(Q) Give me measured Ki, please, for this molecule: COc1ccc(NC(=O)Nc2ccc(Cl)cc2)cc1-c1c(Br)cnn1C(C)C
(A) 0.501 nM

###

# testedSystem: 5-hydroxytryptamine receptor 2A (Homo sapiens)
# protocolNotes: Activity at human 5HT2A receptor expressed in HEK293 cells assessed as [3H]inositol phosphate production by scintillation counting
# Type: functional, cell-based
# protocolConditions: read-out: pIC50 (converted)
propertyName: IC50 (nM)
Respond with the bare value in nM.

(Q) Give me measured IC50, please, for this molecule: Cn1ncc(Br)c1-c1cc(NC(=O)Nc2ccc(Cl)cc2)ccc1OC(F)(F)F
(A) 15.8

(Q) Give me measured IC50, please, for this molecule: CC(C)Oc1ccc(NC(=O)Nc2ccc(Cl)cc2)cc1-c1c(Br)cnn1C
(A) 1.58

(Q) Give me measured IC50, please, for this molecule: COc1ccc(NC(=O)Nc2cc(F)cc(F)c2)cc1-c1c(Br)cnn1C
(A) 1.26

(Q) Give me measured IC50, please, for this molecule: COc1ccc(NC(=O)Nc2ccc(C(F)(F)F)cc2)cc1-c1c(Br)cnn1C
(A) 1.58

(Q) Give me measured IC50, please, for this molecule: COc1ccc(NC(=O)Nc2ccc(N(C)C)cc2)cc1-c1c(Br)cnn1C
(A) 50.1

(Q) Give me measured IC50, please, for this molecule: COc1ccc(NC(=O)Nc2ccc(F)cc2F)cc1-c1c(Cl)cnn1C
(A) 1

(Q) Give me measured IC50, please, for this molecule: COc1ccc(NC(=O)Nc2cccc(C(C)=O)c2)cc1-c1c(Br)cnn1C
(A) 3.98

(Q) Give me measured IC50, please, for this molecule: COc1ccc(NC(=O)Nc2ccc(Cl)cc2C(F)(F)F)cc1-c1c(Br)cnn1C
(A) 2.51

(Q) Give me measured IC50, please, for this molecule: COc1ccc(NC(=O)Nc2ccc(Cl)cc2)cc1-c1ccnn1C
(A) 1
